MEASUREMENT_TYPE: melting point

Worked examples follow.
CN(C)c1ccc(C=C2C=C(c3ccc(Cl)c(Cl)c3)OC2=O)cc1 [Compound 2c] ... 204 to 206 °C
O=C1NN(C(=O)c2ccccc2)C(c2ccc(Cl)c(Cl)c2)=CC1=Cc1ccccc1[N+](=O)[O-] [Compound 8a] ... 222 to 224 °C
O=C1OC(c2ccc(Cl)c(Cl)c2)=CC1=Cc1ccccc1[N+](=O)[O-] [Compound 2a] ... 259 to 261 °C

Kindly consider the entry below.
melting point recorded for this compound, O=C1NN(c2ccccc2)C(c2ccc(Cl)c(Cl)c2)=CC1=Cc1ccccc1[N+](=O)[O-] [Compound 5a] , is > 300 °C
